Origin of values: the nanobody polyreactivity screen of Harvey et al. (2022)

testName: yeast display, Sf9 membrane polyspecificity reagent, FACS + sequencing; frameworks hold sequencing errors
parameter: polyreactivity (PSR sort gate)

QVQLVESGGGLVQAGGSLRLICAASGRTFRYNAMGWYRQAPGKERELVAAITQSGGSTYYADSVKGRFTISRDNAKNTVYLQMNSLKPEDTAVYYCAKVRERINYDYWGQGTQVTVSS; low polyreactivity
QVQLVESWGGLVQAGGSLRLSCAASGFTFDYNGMGWYRQAPWKERELVAGIRWSGGSTYYADSVKGRFTISRDNAKNTVSLQMNSLKPEDTAFYYCAADTLPAEYEYDYWGQGTQVTVSS; low polyreactivity
QVQLVESGGGLVQAGRSLRLSCPAYGFTFVINDMGWYRQAPGKEREFVADITSGGDTYYADSVKGRFTISRDNAKNTVYLQMNSLKPEDTAVFYCAADIYPDWIYLLYGYWGQGTQVTVSS; low polyreactivity
QVQLVESGGGLVQAGGSLRLSCAASGSIFSENAMGWYRQAPGKERELVAAITGGASTNYADSVKGRFTISRDNAKNTVYLQMNSLKPEDTAVYYCAADANRTKFDYWGQGTQVTVSS; low polyreactivity
QVQLVESGGGLVQAGGSLRLSCAASGRISQIYAMGWYRQAPWKERELVARITSTDSTYYADSVKGRFTISRDNAKNTVYLQMNSLKPEDTAVYYCAASWWSPYDYWGQGTQVTVSS; low polyreactivity
QVQLVESGGGLVQAGGRLRLSCAASGRIYTAYYAMGWYIQAPGKERELVASISSSGTSTYADSVKGRFTISRDNAKNTVYLQMNSLKPEDTAVYYCATRKLRTRRYDYGYWGQGTQVTVSS; low polyreactivity
QVQLQESGGGLVQAGGSLRLSCAASGSIFADVQMGWYRQAPGKERELVASINFRGTTSYYADSVKGRFTISRDNAKNTVYLQMSSLKPEETEVYYCAVGRSEGGDFAYWGQGTHVTVSS; low polyreactivity
QVQLVESGGGLVQAGGSLRLSCAASGRTFRPYAMGWYRQAPGKEREFVARITWSGGTTYYADSVKGRFTISRDNAKNTVYLQMNRLKPEDTAVYYCAARVSRQTPVISYNYWGQGTQVTVSS; low polyreactivity
QVQLVESGGGLVQAGGSLRLSCAASGRIFGNYAMGWYRQAPGKERELVAAISGGGSTYYADSVKGRFTISRDKAKNTVYLQMNSLKPEDTAVYYCAARFLWSVFGRKGGYWGQGTQVTVSS; low polyreactivity
QVQLVESAGGFVQAGGSLRLSCAASGRIYQQNGLRWYRQAPGKERELVAGINSGVGTNYADSVKGRFTISRDNAKNTVYLQMNSLKPEDTAVFYCAKSQPSYSGDRDYWGQGTQVTVSS; low polyreactivity
QVQLVESGGGIVQAGGSLRLSCAASGIIFKYYAMGWYRQAPGKERELVAAISRIGGSTHYADSVKGRFTISRDNAKYTVYLQMNSLKPEDTAVSYCAARVLGRPLYFIYDYWGQGTQVTVSS; high polyreactivity
QVQLVESGGGLVQAGGSLRLSCAASGRIFQDYAMGWYRQATGKERELVAAITWSGGRTYYADSVKGRFTISRDNAKNTVYLQMNSLKPEDTAVYYCNRLTQSRLYYGPREYYYWGQGTQVTVSS; high polyreactivity
QLQLVESVGGLVQAGGSLRLSCAASGGIFNVNALGWYRQAPGKERELVAAISLSGSNTYYADSVKGRFTISRDNAKNTVYLQMNSLKPEDTAVYYCNADYVYRRYGYWGQGTQVTVSS; high polyreactivity
QVQLVESGGGLVQAGGSLRLSCAASGFTFFRIYAMGWYRQAPGKERELVAAISRSGSTYADSVKGRFTISRDNAKNTVYLQMNSLKPEDTAVYYCNTTLYADSVWYDYWGQGTQVTVSS; high polyreactivity
QVQLVESGGGLVQAGGSLRLICAATGITLGYYAMGWYRQAPGKERELVAAISYRGGNTYYADSVKGRFTISRDNAKNTVYLQMNSLKPEDTAVYYCNADLGYESGWWSKYDYWGQGTQVTVSS; low polyreactivity

###

testName: yeast display, Sf9 membrane polyspecificity reagent, FACS + sequencing; frameworks hold sequencing errors
parameter: polyreactivity (PSR sort gate)

QVQLVESGGGLVHAGGSLRLSCAASGRIFRSYAMGWYRQAPGKERELVAAITSRGGSTYYADYVKGRFTISRDNAKNTVYLQMNILKTEDTAVYYCAADSFRLGVAAWTRYNYWGQGTQVTVSS; high polyreactivity
QVQLVESGGGLVQAGGSLRLSCAASGRTFRFYAMGWYRQAPGKERELVAAISSGGSTYYADSVKGRFTISRDNAKNTVYLQLNSLKAEDTAVYYCAVKQRDKFAGGRNDYWGQGTQVTVSS; high polyreactivity
QVQLVESGGGLVQAGGSLRLSCPASGFTILDYAMGWYRQAPGKEREMVATINWSDVSTYYADSVKGRFTISRDTAKNTVYLQMNSLKPEDTAVYYCAVDVLTVGQSYDHWGQGTQVTVSS; high polyreactivity
QVQLVESGGGLVQAGGSLRLSCAASGFTFSRYAMGGYRQAPGKERELVAAISIRGGNTYYADSVKGRFTISRDNAKNTVYLQMNSLKPEDTAVYYCAAAGRYLRYAYWGQGTQVTVSS; high polyreactivity
QVQLVESGGGLVQAGGSLRLSCAASGRIFVVYVMGWYRQAPGKERELVAAISYSTGSTYYADSVKGRFTISRDNAKNTVYLQMKSLKPEDTAVYYCAVAAARKSFVSRYYYWGQGTQVTVSS; low polyreactivity
QVQLVQSGGCLVQAGGSLRLSCAASGSTFRYKAMGWYRQAPGKERELVATITGSGGSTYYADSVKGRFTISRDNAKNTVYLQMNSLKAEDTAVYYCNARYKRAAWRYDYWGQGTQVSVSS; high polyreactivity
QVQLVDSGGGLVQAGGSLRLSCAASGSTFTRNVMGWYRQAPGKERELVASISRSGGRTYYADSVKGRFTISRDNAMNTVYLQMNSMKPDDTAVYYCAAKYFYYLDPYDYWGQGTHVTVSS; high polyreactivity
QVQLVESGGGLVQAGGSLRLSCAASGFIFSTNAMGWYRQAPGKERELVAVINGGGSTYYADSVKGRFTISRDNAKNTVYLQLNSLKPEDTAVYNCARKSWPKEGRVDPGYDYWGQGTQVTVSS; low polyreactivity

###

testName: yeast display, Sf9 membrane polyspecificity reagent, FACS + sequencing; frameworks hold sequencing errors
parameter: polyreactivity (PSR sort gate)

QVQLVESGGGLVQAGGSLRLSCAASGSTFYLYAMGWYRQAPGKERELVAAISWSGDSTYYADSVKGRFTISRDNAKNTVYLQMNSLKPEDTAVYYCAAEFYWGDLSYWGQGTQVTVSS; high polyreactivity
QDQLVESGGGLVQAGGSLRLSCAASGSTFTRNSMGRYRQAPWKERELVAVISSRGGRTYYADSVKGRFTISRDNAKNSVYLPMNSLKPDDTAVYYCAARYVIPLGNTYDYWGQGTQVNVSS; high polyreactivity
QVQLVESGGGLVQAGGSLRLSCAASGYTFGFYALGWYRQAPGKERELVAAITVSGGSTYYADSVKGRFTISRDNAKNTVYLQMNSLKPEDTAVYYCAAEVWFYSTFLYDYWGQGTQVTVSS; high polyreactivity
QVQLVESGGGLVQAGGSLRLSCAASGSTFRYYAMGWYRQAPGKERELVAVIRNSGGSTYYADSVKGRFTISRDNAKNTVYLQKNSLKREDTAVYYCAARLYTFHRDYWGQGTQVTVSS; low polyreactivity
QVQLVESGGGLVQAGGSLRLSCAASGSTFRSYAMGWYRQAPGKERELVAVISKRGGSTYYADSVKGRFTISRDNAKNTVYLQMNSLKPEDTAVYYCAARPGPYWTVTFRSPKYYYWGQGTQVTVSS; high polyreactivity
QVQLVESGGGLVQAGGSLRLSCAASGRTFTSYAMGCYRQEPGKERELVAAITRGGRTNYADSVKGRFTISRDNAKNTVYLQMNSLKPEDTAVYYCNTEIRLSKYDYWGQGTQVTVSS; low polyreactivity
QVQLVESGGGLDQAGGSLRLSCAASGSTFLYYAMGWYRQAPGKEREFVARITTRVGRTYYADSVKGRFTISRDNAKNTVSLQMNSLKPEDTAVYYCAAVRISRTPRGLYEYWGQGTQVTVSS; high polyreactivity
QVQLVESGGGLVQAGGSLRLTCAASGITFYSYAMGWYRQAPGKERELVAAITRSGGSTYYADSVKGRFTISRDNAKNTVYLQMNSLKPEDTAVYYCAADEGRVFSGGYDYWGQGTQVTVSS; high polyreactivity

###

testName: yeast display, Sf9 membrane polyspecificity reagent, FACS + sequencing; frameworks hold sequencing errors
parameter: polyreactivity (PSR sort gate)

QVQLVESGGGLVQAGGSLRLSCAASGFTFYAYAMGWYRQAPGKERELVAAISSRGGRTYYADSVKGRFTISRDNAKNTVYLQMNSLKPEDTAVYYCIVPYYSFRELSSYYWGQGTQVTVSS; high polyreactivity
QVQLVESGGGLVQAGGSLRLSCAASGLTFDTYAMGWYRQAPGKERELVAAISICGRTNYADSVKGRFTISRDNAKNTVYLQMNSLKPQDTAVYYCAVGAVVPGRRRRTYYYWGQGTQVTVSS; high polyreactivity
QVQLVESAGGLVQAGVSLRLSCAASGFTFGWYAMGWYRQAPGKERELVATISWSGSSTYYADSVKGRFTISRDNAKNTVYVQMNSLKPDDTAVYYCNAVYGRFVVLRYDYWGQGTQVTVSS; high polyreactivity
